- assay-notes: Metabolic stability in liver microsomes (human)
- Type: in vitro ADME
- condition-summary: Human liver microsomes
Please respond with reported microsomal CLint for every item in the list.
Unit µL/min/mg implied. Number only.

Please look up its microsomal CLint: `[2H]C1([2H])CN(c2ccc(OC(F)(F)F)c(Nc3ncc4c(n3)-c3c(c(C(N)=O)nn3CCO)CC4)c2)C([2H])([2H])[C@H]2CCCN21`
66.2

Please look up its microsomal CLint: `NC(=O)c1nn(CCO)c2c1CCc1cnc(Nc3cc(N4CCN5CCC[C@@H]5C4)ccc3OC(F)(F)F)nc1-2`
64.8

----------
- Tested on: pancreatic cancer cell line (PSN1)
- assay-notes: Proliferation inhibitory activity on cell line PSN1 (CellTiter-Glo, 72 hours)
- Type: cell-based
- condition-summary: Homo sapiens, PSN1 cell proliferation
recorded-endpoint: IC50
Number first, unit second.

Please look up its IC50: `NC(=O)c1nn(CCO)c2c1CCc1cnc(Nc3cc(N4CCN5CCC[C@H]5C4)ccc3OC(F)(F)F)nc1-2`
256 nM

Please look up its IC50: CN1CCN(c2ccc(OC(F)(F)F)c(Nc3ncc4c(n3)-c3c(c(C(N)=O)nn3CCO)CC4)c2)CC1 [NMS-P937, onvansertib, reference compound]
53.7 nM

Please look up its IC50: `[2H]C1([2H])N(C)C([2H])([2H])C([2H])([2H])N(c2ccc(OC(F)(F)F)c(Nc3ncc4c(n3)-c3c(c(C(N)=O)nn3CCO)CC4)c2)C1([2H])[2H]`
57 nM

Please look up its IC50: `NC(=O)c1nn(CCO)c2c1CCc1cnc(Nc3cc(N4CCN5CCC[C@@H]5C4)ccc3OC(F)(F)F)nc1-2`
67.6 nM

Please look up its IC50: `[2H]C1([2H])CN(c2ccc(OC(F)(F)F)c(Nc3ncc4c(n3)-c3c(c(C(N)=O)nn3CCO)CC4)c2)C([2H])([2H])[C@H]2CCCN21`
105 nM
